Reported normalized growth values follow for various compounds
Assay: chemical genetic growth profiling, strain panel (AID 1159580);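 note: tested at 20 µM; growth read once vehicle control cultures reached saturation at 30 °C; 1 = growth at the plate median or of vehicle wells; lower values mean less growth of the strain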
Settings: S. cerevisiae deletion strains, growth OD, locus YCL061C, strain MRC1 (second series), hits give low values
In all, about 5,500 compounds went through this assay and about 2,000 (36%) were called active. Roughly 18% stayed inconclusive and do not appear here. The list shows a part of the results.
readoutType: normalized growth

1) O=C(O)C1CCCN(CCC=C(c2ccccc2)c2ccccc2)C1 (stereo unspecified)	1.01
2) O=C(Nc1cc(C(=O)Nc2ccc(S(=O)(=O)O)cc2S(=O)(=O)O)cc(C(=O)Nc2ccc(S(=O)(=O)O)cc2S(=O)(=O)O)c1)Nc1cc(C(=O)Nc2ccc(S(=O)(=O)O)cc2S(=O)(=O)O)cc(C(=O)Nc2ccc(S(=O)(=O)O)cc2S(=O)(=O)O)c1	0.998
3) CCN1CCC[C@H]1CNC(=O)c1cc(S(N)(=O)=O)ccc1OC	1.01
4) Oc1ccc2c3c1O[C@H]1[C@@H](O)CC[C@@]4(O)C(C2)N(CC2CCC2)CCC314 (stereo partly specified)	0.998
5) C[N+](C)(C)CCO	1.02
6) CNC(=O)Oc1ccc2c(c1)C1(C)CCN(C)C1N2C (stereo unspecified)	0.978
7) COc1ccc2c(c1)c(CC(=O)N1CCOCC1)c(C)n2C(=O)c1ccc(Cl)cc1	1.01
8) NC(N)=[N+]1CCc2ccccc2C1	0.989
9) COc1cc(-c2ccc(=O)[nH]n2)ccc1OC(F)F	1.01
10) COc1ccc2[nH]cc(CCN)c2c1	1
11) NCC1OC(O[C@@H]2[C@H](O)C(OC3C(O)C(N)CC(N)C3OC3OC(CO)C(O)C(O)C3N)O[C@@H]2CO)C(N)C(O)C1O (stereo partly specified)	1
12) O=C1Cc2c([nH]c3ccc(Br)cc23)-c2ccccc2N1	0.991
13) CCNC(=O)C1OC(n2cnc3c(NCc4ccccc4)ncnc32)C(O)C1O (stereo unspecified)	1.01
14) CC(=O)[C@]1(O)Cc2c(O)c3c(c(O)c2[C@@H](O[C@H]2C[C@H](N)[C@H](O)[C@H](C)O2)C1)C(=O)c1ccccc1C3=O	0.0781
15) COc1ccc2c(c1)c(CC(=O)O)c(C)n2C(=O)c1ccc(Cl)cc1	1.01
16) CCCCCC(O)CCCC(=O)O (stereo unspecified)	1.01
17) Cn1cnc2c(NCc3ccccc3)nc(NCCO)nc21	0.99
18) FC(F)(F)c1ccccc1-n1ccnc1	1
19) C[C@@H]1O[C@H](C[N+](C)(C)C)C[C@H]1O	1.01
20) C[C@@H]1O[C@@H](O[C@H]2C[C@@H](O)[C@]3(CO)[C@@H]4C(CC[C@]3(O)C2)[C@@]2(O)CC[C@H](C3COC(=O)C3)[C@@]2(C)C[C@H]4O)[C@H](O)[C@H](O)[C@H]1O (stereo partly specified)	1
21) CN=c1nc(-c2ccccc2)n(-c2ccccc2)s1	0.984
22) NN=C(N)N	1
23) C[C@@H](N)Cc1cnc[nH]1	1.01
24) NC(N)=NN=Cc1c(Cl)cccc1Cl	0.999
25) COC(=O)Nc1nc2ccc(C(=O)c3cccs3)cc2[nH]1	1.01
26) NO	1.01

* * *

Experiment: chemical genetic growth profiling, strain panel (AID 1159580);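 note: tested at 20 µM; growth read once vehicle control cultures reached saturation at 30 °C; 1 = growth at the plate median or of vehicle wells; lower values mean less growth of the strain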
Conditions: S. cerevisiae deletion strains, growth OD, locus YER002W, strain NOP16, hits give low values
The whole screen tested about 5,500 compounds, of which about 2,000 (36%) were called active. Not shown: some 18% with an inconclusive outcome. Some of the results follow.
Reported normalized growth values follow for various molecules
readoutType: normalized growth

1. COc1ccc2[nH]c3c(c2c1)CCNC3	1.02
2. C[C@@H]1O[C@@H](O[C@H]2C[C@@H](O)[C@]3(CO)[C@@H]4C(CC[C@]3(O)C2)[C@@]2(O)CC[C@H](C3COC(=O)C3)[C@@]2(C)C[C@H]4O)[C@H](O)[C@H](O)[C@H]1O (some centres not stated)	0.996
3. CC1C(=O)N(C)C(=O)c2nc[nH]c21 (configuration not stated)	1
4. O=C1Cc2c([nH]c3ccc(Br)cc23)-c2ccccc2N1	1.01
5. O=C(O)C1CCCN(CCC=C(c2ccccc2)c2ccccc2)C1 (configuration not stated)	1
6. FC(F)(F)c1ccccc1-n1ccnc1	0.991
7. CC(N)C1CCC(C(=O)Nc2ccncc2)CC1 (configuration not stated)	0.987
